tested on: PPARg:RXRa 90nM:30nM, anti-RXR (NR concentration 90 nM, RXRa partner concentration 30 nM); assay: PBM binding z-score (relative to random genomic background probes); higher = stronger binding; sequences stand for … in GC…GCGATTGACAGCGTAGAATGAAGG
Lab note: anything with PBM binding z-score at or over 1 counts as 1 (yes); the rest go in 0 (no).

Task: # check: PBM binding z-score of CCTATCAGTTGACCATAAGGGCAACCGAAGCTCG is greater than or equal to 1
Output: 0 (no)

Task: # check: PBM binding z-score of TCGAGTAGGTTACCAATGGGGCATTTAGCTTTCT is greater than or equal to 1
Output: 1 (yes)

Task: # check: PBM binding z-score of TCTTGTAGATCAAGCATGTTAAGAAAGCCTGAGT is greater than or equal to 1
Output: 1 (yes)

Task: # check: PBM binding z-score of CAAACTAGGTCACAGAGGTCAAAGTCCGTGCGTA is greater than or equal to 1
Output: 1 (yes)

Task: # check: PBM binding z-score of TAGCGTAGGTCATTGGGCCAGTATAGTACGCATC is greater than or equal to 1
Output: 1 (yes)

Task: # check: PBM binding z-score of AATCAAAGTTCATCTAGGTAACGTAAGATATGCT is greater than or equal to 1
Output: 1 (yes)

Task: # check: PBM binding z-score of ACTAGCAGGCCAAGTGTGGGTCACTCAAACAAAG is greater than or equal to 1
Output: 0 (no)

Task: # check: PBM binding z-score of TCATATGGGTAAATGCTAGGTGAAAGTCCGATCT is greater than or equal to 1
Output: 1 (yes)

Task: # check: PBM binding z-score of CCTGCTAGGTTATGGTCAGCTAATCTACAGTATG is greater than or equal to 1
Output: 0 (no)

Task: # check: PBM binding z-score of TTACCAAGGTGAAAGGTCGTTAATGCACGCCTTG is greater than or equal to 1
Output: 1 (yes)

Task: # check: PBM binding z-score of CCTACTGGGCCACGAGAGGTCATTGATTCAGTGA is greater than or equal to 1
Output: 1 (yes)

Task: # check: PBM binding z-score of CCAGACAGGTGAGAAGGTAACTTAGCCTCGATTA is greater than or equal to 1
Output: 0 (no)
